Source listed as patent US12071414B2.

Target: human apelin receptor (APJ, AGTRL-one, APLNR) (Homo sapiens, UniProt P35414)
Sequence (P35414 whole entry): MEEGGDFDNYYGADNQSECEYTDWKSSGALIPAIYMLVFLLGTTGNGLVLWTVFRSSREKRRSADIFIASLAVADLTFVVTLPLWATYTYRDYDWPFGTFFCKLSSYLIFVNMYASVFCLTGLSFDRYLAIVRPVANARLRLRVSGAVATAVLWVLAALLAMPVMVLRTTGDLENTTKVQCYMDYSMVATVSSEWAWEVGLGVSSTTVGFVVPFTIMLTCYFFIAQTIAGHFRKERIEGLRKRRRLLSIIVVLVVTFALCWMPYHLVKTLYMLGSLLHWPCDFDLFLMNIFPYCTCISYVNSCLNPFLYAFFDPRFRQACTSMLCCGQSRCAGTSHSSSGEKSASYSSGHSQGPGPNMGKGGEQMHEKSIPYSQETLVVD
Test: cell-based cAMP TR-FRET assay of apelin receptor activation
Settings: CHO cells expressing human APJ, forskolin-stimulated cAMP, 0.5 h incubation, 50% of control (apelin-13, 1 nM) response; read-out: Potency Category (EC50)
pEC50: −log10 of the molar value.
Experimental Readout: pEC50

>>> df
                                    compound     obs_value
 0  CCS(=O)(=O)c1ccc(C(Nc2ccc(C)cc2)C(=O)Nc2nc3cc(OC)c(OC)cc3s2)cc1 (stereo not drawn)        < 6.30
 1  CCS(=O)(=O)c1ccc(C(Oc2ccc(C#N)cc2C)C(=O)Nc2nc3cc(OC)c(OC)cc3s2)cc1 (stereo not drawn)        > 7.30
 2  COc1cc2nc(NC(=O)C(Oc3ccc(C#N)cc3)c3ccc(C(=O)NCCN4CCCC4)cc3)sc2cc1OC (stereo not drawn)  6.30 to 6.70
 3  COc1cc2nc(NC(=O)C(Oc3ccc(O)cc3)c3ccc(C#N)cc3)sc2cc1OC (stereo not drawn)        < 6.30
 4  CCS(=O)(=O)c1ccc(C(NCC(C)C)C(=O)Nc2nc3cc(OC)c(OC)cc3s2)cc1 (stereo not drawn)        < 6.30
 5  CCS(=O)(=O)c1ccc(C(Oc2ccc(C)cc2)C(=O)Nc2nc3cc(OC)c(OC)cc3s2)cc1 (stereo not drawn)  6.30 to 6.70
 6  COc1cc2nc(NC(=O)Cc3ccc(C(=O)O)cc3)sc2cc1OC        < 6.30
 7  CCS(=O)(=O)c1ccc(C(Oc2ccc(C#N)c(C)c2)C(=O)Nc2nc3cc(OC)c(OC)cc3s2)cc1 (stereo not drawn)  7.00 to 7.30
 8  COc1cc2nc(NC(=O)C(Oc3ccc(C#N)cc3)c3ccc(C(=O)NCCO)cc3)sc2cc1OC (stereo not drawn)  7.00 to 7.30
 9  CCS(=O)(=O)c1ccc(C(OC2CCOCC2)C(=O)Nc2nc3cc(OC)c(OC)cc3s2)cc1 (stereo not drawn)        < 6.30
10  CCS(=O)(=O)c1ccc(C(Nc2ccc(OC)cc2)C(=O)Nc2nc3cc(OC)c(OC)cc3s2)cc1 (stereo not drawn)        < 6.30
11  CCS(=O)(=O)c1ccc(C(C(=O)Nc2nc3cc(OC)c(OC)cc3s2)N(C)C)cc1 (stereo not drawn)        < 6.30
12  CCS(=O)(=O)c1ccccc1C(Oc1ccc(C#N)cc1)C(=O)Nc1nc2cc(OC)c(OC)cc2s1 (stereo not drawn)        > 7.30
13  CCCCc1ccc(OC(C(=O)Nc2nc3cc(OC)c(OC)cc3s2)c2ccc(S(=O)(=O)CC)cc2)cc1 (stereo not drawn)        < 6.30
14  CCOc1ccc(C(Oc2ccc(C#N)cc2)C(=O)Nc2nc3cc(OC)c(OC)cc3s2)cc1 (stereo not drawn)        > 7.30
15  CCS(=O)(=O)c1ccc(C(Oc2ccc(C(=O)OC)cc2)C(=O)Nc2nc3cc(OC)c(OC)cc3s2)cc1 (stereo not drawn)        > 7.30
16  COc1cc2nc(NC(=O)C(Oc3ccc(C#N)cc3)c3ccc(OC(C)C)cc3)sc2cc1OC (stereo not drawn)        > 7.30
17  COCCS(=O)(=O)c1ccc(C(Oc2ccc(C#N)cc2)C(=O)Nc2nc3cc(OC)c(OC)cc3s2)cc1 (stereo not drawn)        > 7.30
